# System: RAW264.7
# Experiment: Antiinflammatory activity in mouse RAW264.7 cells assessed as inhibition of LPS-induced nitrite production at 50 uM after 22 hrs by Griess method relative to LPS-treated control
# Format: functional
# Test context: RAW264.7, 22 h
Measured inhibition at 50 µM, listed per entry for reference.

[
  {
    "Molecule smiles": "CCCCC(c1ccc(C)o1)c1ccc(C)o1",
    "inhibition at 50 µM": "31.7%"
  },
  {
    "Molecule smiles": "CCC(c1ccc(C)o1)c1ccc(C)o1",
    "inhibition at 50 µM": "30.9%"
  },
  {
    "Molecule smiles": "Cc1ccc(C(c2ccc([N+](=O)[O-])cc2)c2ccc(C)o2)o1",
    "inhibition at 50 µM": "73.2%"
  },
  {
    "Molecule smiles": "COc1ccc(C(c2ccc(C)o2)c2ccc(C)o2)cc1",
    "inhibition at 50 µM": "34.6%"
  },
  {
    "Molecule smiles": "Cc1ccc(C(c2ccc(Cl)cc2)c2ccc(C)o2)o1",
    "inhibition at 50 µM": "39.5%"
  },
  {
    "Molecule smiles": "Cc1ccc(C(c2ccc(Br)cc2)c2ccc(C)o2)o1",
    "inhibition at 50 µM": "24.9%"
  },
  {
    "Molecule smiles": "Cc1ccc(C(CCc2ccccc2)c2ccc(C)o2)o1",
    "inhibition at 50 µM": "46.8%"
  },
  {
    "Molecule smiles": "CCC(CC)C(c1ccc(C)o1)c1ccc(C)o1",
    "inhibition at 50 µM": "26.6%"
  },
  {
    "Molecule smiles": "COc1cc(C(c2ccc(C)o2)c2ccc(C)o2)ccc1O",
    "inhibition at 50 µM": "63.7%"
  },
  {
    "Molecule smiles": "Cc1ccc(C(c2ccccc2)c2ccc(C)o2)o1",
    "inhibition at 50 µM": "33.4%"
  },
  {
    "Molecule smiles": "N=C(N)NN",
    "inhibition at 50 µM": "70.2%"
  },
  {
    "Molecule smiles": "Cc1ccc(C(CC(C)C)c2ccc(C)o2)o1",
    "inhibition at 50 µM": "21.4%"
  },
  {
    "Molecule smiles": "O=[N+]([O-])c1ccc(C(c2ccc[nH]2)c2ccc[nH]2)cc1",
    "inhibition at 50 µM": "26.9%"
  },
  {
    "Molecule smiles": "CCc1ccc(C(CCc2ccccc2)c2ccc(CC)o2)o1",
    "inhibition at 50 µM": "39.4%"
  },
  {
    "Molecule smiles": "CCc1ccc(C(c2ccc([N+](=O)[O-])cc2)c2ccc(CC)o2)o1",
    "inhibition at 50 µM": "63.3%"
  },
  {
    "Molecule smiles": "Cc1ccc(C(c2ccc(C)o2)C2CCCCC2)o1",
    "inhibition at 50 µM": "36.9%"
  },
  {
    "Molecule smiles": "Cc1ccc(C(CCc2ccccc2)c2ccc(C)s2)s1",
    "inhibition at 50 µM": "21.5%"
  },
  {
    "Molecule smiles": "CCc1ccc(C(c2ccccc2)c2ccc(CC)o2)o1",
    "inhibition at 50 µM": "41.5%"
  },
  {
    "Molecule smiles": "c1ccc(C(c2ccc[nH]2)c2ccc[nH]2)cc1",
    "inhibition at 50 µM": "2.1%"
  },
  {
    "Molecule smiles": "Cc1ccc(C(c2ccc(F)cc2)c2ccc(C)o2)o1",
    "inhibition at 50 µM": "64.2%"
  },
  {
    "Molecule smiles": "CCc1ccc(C(c2ccc([N+](=O)[O-])cc2)c2ccc(CC)[nH]2)[nH]1",
    "inhibition at 50 µM": "50.7%"
  }
]

###

We begin with a simple list: items and their reported viability at 22 h, 50 µM.
# Experiment: Cytotoxicity against mouse RAW264.7 cells assessed as cell viability at 50 uM after 22 hrs by MTT assay relative to control
# Assay type: cell-based
# Test context: read-out: Activity

[
  {
    "Molecule smiles": "O=[N+]([O-])c1ccc(C(c2ccc[nH]2)c2ccc[nH]2)cc1",
    "viability at 22 h, 50 µM": "95.8%"
  },
  {
    "Molecule smiles": "CCCCC(c1ccc(C)o1)c1ccc(C)o1",
    "viability at 22 h, 50 µM": "100%"
  },
  {
    "Molecule smiles": "Cc1ccc(C(CCc2ccccc2)c2ccc(C)s2)s1",
    "viability at 22 h, 50 µM": "103%"
  },
  {
    "Molecule smiles": "c1ccc(C(c2ccc[nH]2)c2ccc[nH]2)cc1",
    "viability at 22 h, 50 µM": "100%"
  },
  {
    "Molecule smiles": "CCc1ccc(C(c2ccccc2)c2ccc(CC)o2)o1",
    "viability at 22 h, 50 µM": "101%"
  },
  {
    "Molecule smiles": "CCc1ccc(C(CCc2ccccc2)c2ccc(CC)o2)o1",
    "viability at 22 h, 50 µM": "101%"
  },
  {
    "Molecule smiles": "CCC(c1ccc(C)o1)c1ccc(C)o1",
    "viability at 22 h, 50 µM": "101%"
  },
  {
    "Molecule smiles": "COc1cc(C(c2ccc(C)o2)c2ccc(C)o2)ccc1O",
    "viability at 22 h, 50 µM": "98.2%"
  },
  {
    "Molecule smiles": "Cc1ccc(C(CCc2ccccc2)c2ccc(C)o2)o1",
    "viability at 22 h, 50 µM": "100%"
  },
  {
    "Molecule smiles": "Cc1ccc(C(c2ccc(Cl)cc2)c2ccc(C)o2)o1",
    "viability at 22 h, 50 µM": "101%"
  },
  {
    "Molecule smiles": "CCc1ccc(C(c2ccc([N+](=O)[O-])cc2)c2ccc(CC)[nH]2)[nH]1",
    "viability at 22 h, 50 µM": "99.2%"
  },
  {
    "Molecule smiles": "Cc1ccc(C(c2ccc(C)o2)C2CCCCC2)o1",
    "viability at 22 h, 50 µM": "102%"
  },
  {
    "Molecule smiles": "Cc1ccc(C(CC(C)C)c2ccc(C)o2)o1",
    "viability at 22 h, 50 µM": "101%"
  },
  {
    "Molecule smiles": "Cc1ccc(C(c2ccc([N+](=O)[O-])cc2)c2ccc(C)o2)o1",
    "viability at 22 h, 50 µM": "96.3%"
  },
  {
    "Molecule smiles": "COc1ccc(C(c2ccc(C)o2)c2ccc(C)o2)cc1",
    "viability at 22 h, 50 µM": "97.8%"
  },
  {
    "Molecule smiles": "CCC(CC)C(c1ccc(C)o1)c1ccc(C)o1",
    "viability at 22 h, 50 µM": "101%"
  },
  {
    "Molecule smiles": "Cc1ccc(C(c2ccc(Br)cc2)c2ccc(C)o2)o1",
    "viability at 22 h, 50 µM": "101%"
  },
  {
    "Molecule smiles": "N=C(N)NN",
    "viability at 22 h, 50 µM": "100%"
  },
  {
    "Molecule smiles": "Cc1ccc(C(c2ccccc2)c2ccc(C)o2)o1",
    "viability at 22 h, 50 µM": "99.3%"
  },
  {
    "Molecule smiles": "Cc1ccc(C(c2ccc(F)cc2)c2ccc(C)o2)o1",
    "viability at 22 h, 50 µM": "97.8%"
  },
  {
    "Molecule smiles": "CCc1ccc(C(c2ccc([N+](=O)[O-])cc2)c2ccc(CC)o2)o1",
    "viability at 22 h, 50 µM": "101%"
  }
]

Data provenance: ChEMBL document CHEMBL3286268
